target: Tankyrase 1 (TNKS1) (Homo sapiens)
Sequence (O95271 1088-1327): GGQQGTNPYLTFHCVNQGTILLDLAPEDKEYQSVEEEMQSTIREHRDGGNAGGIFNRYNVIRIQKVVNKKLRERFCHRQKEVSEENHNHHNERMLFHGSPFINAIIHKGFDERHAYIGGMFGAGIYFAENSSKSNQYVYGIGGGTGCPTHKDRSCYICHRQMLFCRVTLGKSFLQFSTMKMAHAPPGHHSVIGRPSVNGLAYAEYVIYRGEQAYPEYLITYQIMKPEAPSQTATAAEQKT
hey, just use met if measured IC50 is less than 100 nM, otherwise not met

* CCOc1ccc(-c2nc3c(ccn3C)c(=O)[nH]2)cn1 [Example 40] | not met
* C=CCCn1ccc2c(=O)[nH]c(-c3ccc(C(F)(F)F)cc3)nc21 [Example 49] | not met
* Cn1ccc2c(=O)[nH]c(N3CC(C)(c4ccc(Br)cc4)C3)nc21 [Example 15] | not met
* CCOC(=O)c1ccc(N2CCN(c3nc4c(ccn4C)c(=O)[nH]3)CC2)cc1 [Example 2] | met
* CN1CCN(c2nc3c(ccn3C)c(=O)[nH]2)CC1 [Example 11] | not met

**Q:** Identify whether the compound Cn1ccc2c(=O)[nH]c(N3CCC(c4ccc(F)cc4)CC3)nc21 [Example 48] records IC50 below 100 nM.
**A:** met

**Q:** How about this compound: Cn1ccc2c(=O)[nH]c(N3CCN(c4ncccn4)CC3)nc21 [Example 8]
**A:** not met

**Q:** How about this compound: O=c1[nH]c(-c2ccc(C(F)(F)F)cc2)nc2c1ccn2CC(O)CO (stereo not drawn) [Example 54]
**A:** not met

**Q:** How about this compound: CCn1ccc2c(=O)[nH]c(-c3ccc(C(F)(F)F)cc3)cc21 [Example 46]
**A:** not met

The values you see were collected from patent US8722661B2.
